# TARGET DESC: ALK2 (Homo sapiens (Human))
pIC50: −log10 of the molar value.
QUANTITY KIND: pIC50

Incoming: Notebook entry, ALK2 (Homo sapiens (Human)) assay: pIC50 of COc1cc(-n2cnc(Nc3nc(N4CCC[C@H]4CO)nc4c3COC4)c2)cc(OC)c1OC [Compound 281b] = ?
Outgoing: > 7.00

Incoming: Notebook entry, ALK2 (Homo sapiens (Human)) assay: pIC50 of COc1cc(-n2cnc(Nc3nc(N4CCC[C@H]4CO)nc4cc(C(F)(F)F)ccc34)c2)cc(OC)c1OC [Compound 284c] = ?
Outgoing: > 7.00

Incoming: Notebook entry, ALK2 (Homo sapiens (Human)) assay: pIC50 of COc1cc(-n2cnc(Nc3nc(N4CCC[C@H]4CO)c4occc4n3)c2)cc(OC)c1OC [Compound 148b] = ?
Outgoing: > 7.00

Incoming: Notebook entry, ALK2 (Homo sapiens (Human)) assay: pIC50 of CCOc1ccc(-n2cnc(Nc3nc(N4CCC[C@H]4CO)nn4cccc34)c2)cc1OCC [Compound 319b] = ?
Outgoing: 6.00 to 7.00

Incoming: Notebook entry, ALK2 (Homo sapiens (Human)) assay: pIC50 of COc1cc(-n2cnc(Nc3nc(N4CCC[C@H]4CO)c4cccn4n3)c2)cc(C(C)=O)c1OC [Compound 234e] = ?
Outgoing: 6.00 to 7.00

Incoming: Notebook entry, ALK2 (Homo sapiens (Human)) assay: pIC50 of OC[C@@H]1CCCN1c1nc(Nc2cn(-c3ccccc3F)cn2)c2cccn2n1 [Compound 36c] = ?
Outgoing: > 7.00

Incoming: Notebook entry, ALK2 (Homo sapiens (Human)) assay: pIC50 of COc1cc(-n2cnc(Nc3ncc4ccccc4n3)c2)cc(OC)c1OC [Compound 198b] = ?
Outgoing: 6.00 to 7.00

* * *

The following compounds each carry a recorded IC50 for ALK2 (Homo sapiens (Human), UniProt Q04771).

Illustrative cases are given below, each with its answer.
OC[C@@H]1CCCN1c1nc(Nc2cn(-c3ccnc4ccccc34)cn2)c2cccn2n1 [Compound 448e] | < 100 nM
c1ccc(C2CCCN2c2nc(Nc3cn(C4CCCC4)cn3)c3cccn3n2)nc1 (stereo not shown) [Compound 69a] | < 100 nM
OC[C@@H]1CCCN1c1nc(Nc2cn(-c3cccc(F)c3)cn2)c2cccn2n1 [Compound 44c] | < 100 nM

Would you kindly look at the next entry?
Incoming: Notebook entry, ALK2 (Homo sapiens (Human), UniProt Q04771) assay: IC50 of COc1cc(-n2cnc(Nc3nc4c(c(N5CCC[C@H]5CO)n3)CN(Cc3ccccc3)CC4)c2)cc(OC)c1OC [Compound 177b] = ?
Outgoing: < 100 nM

* * *

Reported IC50 values for a set of compounds
# TARGET DESC: ALK2 (Homo sapiens (Human), UniProt Q04771)
# Sequence (Q04771 21-509): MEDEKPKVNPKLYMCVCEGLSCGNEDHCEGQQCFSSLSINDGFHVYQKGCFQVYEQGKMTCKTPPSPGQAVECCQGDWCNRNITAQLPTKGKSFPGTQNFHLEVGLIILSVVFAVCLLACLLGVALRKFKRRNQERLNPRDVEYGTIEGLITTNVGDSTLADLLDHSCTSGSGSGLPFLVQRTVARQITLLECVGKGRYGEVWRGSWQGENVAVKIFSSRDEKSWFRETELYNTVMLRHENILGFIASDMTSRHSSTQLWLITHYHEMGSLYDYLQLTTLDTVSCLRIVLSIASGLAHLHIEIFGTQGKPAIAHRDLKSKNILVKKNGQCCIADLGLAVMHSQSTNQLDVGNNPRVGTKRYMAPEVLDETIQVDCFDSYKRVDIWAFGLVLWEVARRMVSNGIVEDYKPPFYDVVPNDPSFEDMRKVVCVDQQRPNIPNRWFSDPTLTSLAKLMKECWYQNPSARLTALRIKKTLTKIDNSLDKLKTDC

COc1cc(-n2cnc(Nc3nc(N4CCC[C@@H]4CO)c4cccn4n3)c2)cc(OC)c1OC [Compound 227b] | 100 to 1000 nM
COc1ccc(-c2csc3c(Nc4cn(-c5ccccc5)cn4)nc(N4CCC[C@H]4CO)nc23)cc1 [Compound 89a] | 100 to 1000 nM
COc1cc(-n2cnc(Nc3nc4c(c(N5CCC[C@H]5CO)n3)CN(C(=O)[C@@H]3CCC(=O)N3)CC4)c2)cc(OC)c1OC [Compound 240a] | < 100 nM
COc1cc(-n2cnc(Nc3nc(N4CCC[C@H]4CO)nc4c3cnn4C)c2)cc(OC)c1OC [Compound 336c] | < 100 nM
COc1cc(-n2cnc(Nc3nc(N4CCC[C@H]4CO)nc4[nH]ccc34)c2)cc(OC)c1OC [Compound 141d] | < 100 nM
COc1cc(-n2cnc(Nc3nc(N4CCC[C@H]4C(N)=O)c4sccc4n3)c2)cc(OC)c1OC [Compound 139b] | 100 to 1000 nM
COc1cccc(-n2cnc(Nc3nc(N4CCC[C@H]4CO)nn4cccc34)c2)c1 [Compound 56c] | < 100 nM

Would you kindly look at the next entry?
Incoming: Consider the compound shown here: OC[C@@H]1CCCN1c1nc(Nc2cn(-c3cccc(O)c3O)cn2)c2cccn2n1 [Compound 424f] What is its recorded IC50?
Outgoing: 100 to 1000 nM

* * *

pIC50: −log10 of the molar value.
The following molecules each carry a recorded pIC50 for ALK2 (Homo sapiens (Human), UniProt Q04771).

Illustrative cases are given below, each with its answer.
COc1cc(-n2cnc(Nc3nc(N4CCC[C@H]4CO)nn4c(C(=O)N5CCCCC5)ccc34)c2)cc(OC)c1OC [Compound 410e] | > 7.00
OC[C@@H]1CCCN1c1nc(Nc2cn(-c3ccnc4ccsc34)cn2)c2cccn2n1 [Compound 443e] | > 7.00
OC[C@@H]1CCCN1c1nc(Nc2cn(-c3ccc4cc[nH]c4c3)cn2)c2cccn2n1 [Compound 65c] | 6.00 to 7.00

Incoming: Notebook entry, ALK2 (Homo sapiens (Human), UniProt Q04771) assay: pIC50 of COc1cc(-n2cnc(Nc3nc(N4CCC[C@@H]4CO)c4cc[nH]c4n3)c2)cc(OC)c1OC [Compound 307c] = ?
Outgoing: > 7.00

Incoming: Notebook entry, ALK2 (Homo sapiens (Human), UniProt Q04771) assay: pIC50 of COc1cc(-n2cnc(Nc3nc(N4CCCC4)c4cccnc4n3)c2)cc(OC)c1OC [Compound 192b] = ?
Outgoing: > 7.00

Incoming: Notebook entry, ALK2 (Homo sapiens (Human), UniProt Q04771) assay: pIC50 of COc1cc(-n2cnc(Nc3nc(N4CCC[C@H]4CO)c4ccc(-c5cccc(NC(C)=O)c5)cc4n3)c2)cc(OC)c1OC [Compound 364b] = ?
Outgoing: > 7.00

* * *

# TARGET DESC: ALK2 (Homo sapiens (Human), UniProt Q04771)
# TEST NAME: ALK2 inhibition, LanthaScreen Eu Kinase Binding Assay (ThermoFisher Scientific / Life Technologies)
# EXPERIMENTAL SETUP: read-out: Measured Ki (IC50) Value for Compounds: IC50
Reported IC50 values for a set of molecules

Illustrative cases are given below, each with its answer.
COc1cc(-n2cnc(Nc3nc(N4CCC[C@@H]4C(N)=O)nc4ccoc34)c2)cc(OC)c1OC [Compound 300a] | < 100 nM
C[C@H](Nc1nc(Nc2cn(-c3ccccc3)cn2)c2ccccc2n1)c1ccccc1 [Compound 24b] | 100 to 1000 nM
OC[C@@H]1CCCN1c1nc(Nc2cn(-c3ccc(F)cc3)cn2)c2cccn2n1 [Compound 25c] | < 100 nM
OC[C@@H]1CCCN1c1nc(Nc2cn(-c3ccc(OC(F)(F)F)cc3)cn2)c2cccn2n1 [Compound 414d] | 100 to 1000 nM
COc1cc(-n2cnc(Nc3nc(N4CCC[C@H]4CO)nc4[nH]cc(C#N)c34)c2)cc(OC)c1OC [Compound 397a] | 100 to 1000 nM

Incoming: Consider the molecule shown here: COc1cc(-n2cnc(Nc3nc(N4CCCC4)c4ncsc4n3)c2)cc(OC)c1OC [Compound 233b] What is its recorded IC50?
Outgoing: 100 to 1000 nM

Incoming: Consider the molecule shown here: COc1cc(-n2cnc(Nc3nc(N4CCC[C@H]4CO)c4ccc(C)cc4n3)c2)cc(OC)c1OC [Compound 393b] What is its recorded IC50?
Outgoing: 100 to 1000 nM

Incoming: Consider the molecule shown here: COc1cc(-n2cnc(Nc3nc(N4CCC[C@H]4CO)nc4cc(C#N)ccc34)c2)cc(OC)c1OC [Compound 347a] What is its recorded IC50?
Outgoing: < 100 nM

* * *

The following molecules each carry a recorded IC50 for UniProt:Q04771.

COc1c(O)cc(-n2cnc(Nc3nc(N4CCC[C@H]4CO)nn4cccc34)c2)cc1C(=O)NCC1CC1 [Compound 267i] | 100 to 1000 nM
COc1cc(-n2cnc(Nc3nc4c(c(N5[C@H](CO)C[C@H]6C[C@H]65)n3)CCC4)c2)cc(OC)c1OC [Compound 394b] | < 100 nM
N#Cc1ccc(-n2cnc(Nc3nc(N4CCC[C@H]4CO)nn4cccc34)c2)cc1 [Compound 116c] | 100 to 1000 nM
COc1cc(-n2cnc(Nc3nc(N4CCC[C@H]4CO)nn4c(CO)ccc34)c2)cc(OC)c1OC [Compound 101c] | < 100 nM

Incoming: Notebook entry, UniProt:Q04771 assay: IC50 of NC(=O)c1cccc(-n2cnc(Nc3nc(N4CCC[C@H]4CO)nn4cccc34)c2)c1 [Compound 94c] = ?
Outgoing: < 100 nM

Incoming: Notebook entry, UniProt:Q04771 assay: IC50 of COc1cc(-n2cnc(Nc3nc(N4CCC[C@H]4CO)c4cccnc4n3)c2)cc(OC)c1OC [Compound 174b] = ?
Outgoing: < 100 nM

Incoming: Notebook entry, UniProt:Q04771 assay: IC50 of COc1cc(-n2cnc(Nc3nc4c(c(N5CCC[C@@H]5CO)n3)CCCC4)c2)cc(OC)c1OC [Compound 264b] = ?
Outgoing: < 100 nM
